# Tested on: HEK293T (UBE3A T485A transfected, BAR Wnt reporter)
# test.description: Renilla luciferase signal (cell health) relative to plate median (fold (linear ratio)); higher = higher Renilla signal
# test.parameters: concentration: 10 uM; 24 h
Over roughly 1,100 compounds, “Renilla luciferase signal (cell health) relative to plate median” has its median near 0.97; the highest 2% begin near 1.6. For the sample, the highest values were picked, then their nearest neighbours and some compounds at random.
Assign class by Renilla luciferase signal: not lower than 1 means TRUE; lower than 1 means FALSE.

> print(dat)
                                    compound  assigned.label
 1             Nc1ccc2c(c1)C(=O)c1ccccc1C2=O           FALSE
 2  CCc1c(C(=O)NN2CCCCC2)nn(-c2ccc(Cl)cc2Cl)c1-c1ccc(Br)cc1           FALSE
 3                              Nc1cccc(N)c1            TRUE
 4  CC(C)(C)C(O)C(Cc1ccc(Cl)cc1)n1cncn1 (stereo not given)            TRUE
 5                O=C(O)CC(O)(CC(=O)O)C(=O)O            TRUE
 6                          O=C(O)CCCCC(=O)O           FALSE
 7                               CCCCCC(=O)O            TRUE
 8  CCCCCCCC/C=C\CCCCCCCC(=O)OC[C@@H](O)[C@H]1OC[C@H](O)[C@H]1O [Sorbitan, mono-(9Z)-9-octadecenoate]           FALSE
 9                 CC1(C)C(=O)N(Cl)C(=O)N1Cl            TRUE
10                           CCCCCCCCCC(=O)O           FALSE
